- TESTED_TARGET: PAPD5 (Homo sapiens, UniProt Q8NDF8)
- Sequence (Q8NDF8 whole entry): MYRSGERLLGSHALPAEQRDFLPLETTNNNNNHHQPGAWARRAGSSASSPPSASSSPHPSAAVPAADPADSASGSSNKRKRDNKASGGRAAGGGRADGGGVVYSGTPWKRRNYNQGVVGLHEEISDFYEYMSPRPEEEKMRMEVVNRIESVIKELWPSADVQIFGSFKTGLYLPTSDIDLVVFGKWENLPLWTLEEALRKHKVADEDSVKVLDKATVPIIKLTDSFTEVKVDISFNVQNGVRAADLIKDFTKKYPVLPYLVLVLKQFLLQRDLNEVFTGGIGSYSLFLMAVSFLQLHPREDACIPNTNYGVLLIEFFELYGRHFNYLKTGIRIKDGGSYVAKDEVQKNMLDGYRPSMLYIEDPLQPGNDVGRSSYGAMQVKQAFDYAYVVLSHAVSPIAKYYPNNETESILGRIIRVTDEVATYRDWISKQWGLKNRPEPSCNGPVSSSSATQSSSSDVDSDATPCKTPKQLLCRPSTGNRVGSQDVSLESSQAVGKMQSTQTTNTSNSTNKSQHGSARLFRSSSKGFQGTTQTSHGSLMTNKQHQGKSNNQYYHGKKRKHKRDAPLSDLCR
- RUN_DESCRIPTION: cell-based
- Parameters: endogenous in cells; host or cells: HepG2/2.2.15 PAPD7 knock-out cells (CRISPR/Cas9)
- CONDITION_NOTES: Table 3; HepG2/2.2.15 PAPD7 KO cells, HBsAg secretion, 4 days; read-out: pIC50 PAPD5 (PAPD7 KO cells) (converted)
MEASURED_ENDPOINT: log10 IC50 (log10 of the value in nM)
Remember, log10 of IC50, in nM.

compound="COCCCOc1cc2c(nc1C1CC1)-c1[nH]c(=O)c(C(=O)O)cc1C(C(C)(C)C)O2 (racemic)" measured_endpoint="log10 IC50" observed_measurement=-0.40
compound="COCCCOc1cc2c(nc1OC)-c1[nH]c(=O)c(C(=O)O)cc1C(C(C)(C)C)O2 (racemic)" measured_endpoint="log10 IC50" observed_measurement=0.30
compound="CCn1c2c(cc(C(=O)O)c1=O)C(C(C)C)Oc1cc(OCCCOC)c(OC)nc1-2 (racemic)" measured_endpoint="log10 IC50" observed_measurement=0.00
compound="COCCCOc1cc2c(nc1C1CC1)-c1c(cc(C(=O)O)c(=O)n1C1CC1)C(C(C)(C)C)O2 (racemic)" measured_endpoint="log10 IC50" observed_measurement=-1.00

--- query ---
Data request: log10 IC50 for COCCCOc1cc2c(nc1OC)-c1c(cc(C(=O)O)c(=O)n1CCO)C(C(C)C)O2 (racemic) ?
Data returned: 0.70

###

- System: HBsAg secretion in HepG2/2.2.15 WT cells (combined effect of PAPD5 and PAPD7 inhibition)
Note to self: use fulfilled only for IC50 readings below 1 nM; a reading exactly at 1 nM still gets not fulfilled.

compound=COCCCOc1cc2c(nc1OC)-c1[nH]c(=O)c(C(=O)O)cc1C1(CCCC1)O2 tested_target="HBsAg secretion in HepG2/2.2.15 WT cells (combined effect of PAPD5 and PAPD7 inhibition)" label="not fulfilled"
compound="COCCCOc1cc2c(nc1OC)-c1c(cc(C(=O)O)c(=O)n1C1CC1)C(C(C)(C)C)C2 (racemic) [Example 702, reference compound]" tested_target="HBsAg secretion in HepG2/2.2.15 WT cells (combined effect of PAPD5 and PAPD7 inhibition)" label="not fulfilled"
compound="COCCCOc1cc2c(nc1OC)-c1c(cc(C(=O)O)c(=O)n1C1CC1)C(C(C)(C)C)O2 (racemic)" tested_target="HBsAg secretion in HepG2/2.2.15 WT cells (combined effect of PAPD5 and PAPD7 inhibition)" label=fulfilled
compound="COCCCOc1cc2c(nc1OC)-c1c(cc(C(=O)O)c(=O)n1CCO)C(C(C)C)O2 (racemic)" tested_target="HBsAg secretion in HepG2/2.2.15 WT cells (combined effect of PAPD5 and PAPD7 inhibition)" label="not fulfilled"

Moving on to another compound below.
Data request: Dear colleague, could you confirm whether IC50 of COCCCOc1cc2c(nc1C1CC1)-c1[nH]c(=O)c(C(=O)O)cc1C(C(C)(C)C)O2 (racemic) falls below 1 nM? Thanks.
Data returned: fulfilled

Just for reference, patent US11964986B1 is where these values come from.
